Exercise: state measured RLU, fluorescence trace for each of the compounds provided.
- Tested on: human TAS2R4 (Homo sapiens)
- Construct: expressed in transfected cells; host or cells: HEK293T-Gα16gust44
- Sequence (Q9NYW5 whole entry): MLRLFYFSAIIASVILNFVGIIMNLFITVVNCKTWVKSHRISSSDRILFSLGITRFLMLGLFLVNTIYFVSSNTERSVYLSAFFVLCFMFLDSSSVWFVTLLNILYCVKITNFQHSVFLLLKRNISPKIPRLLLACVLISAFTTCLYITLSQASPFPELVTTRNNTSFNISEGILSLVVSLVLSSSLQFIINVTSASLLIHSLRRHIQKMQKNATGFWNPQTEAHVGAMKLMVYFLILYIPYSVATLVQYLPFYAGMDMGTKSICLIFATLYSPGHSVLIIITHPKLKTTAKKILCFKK
- Method: Calcium imaging assay (FLIPR), HEK293T-Gα16gust44 cells transfected with human TAS2R4; also: test concentration or dose not given here
- Format: cell-based
- Test parameters: Time (s) 149.547
One number for each entry, in RLU.

Give RLU, fluorescence trace for all compounds that follow.
1. C[C@H](CCC(=O)NCCS(=O)(=O)O)[C@H]1CC[C@H]2[C@@H]3CC[C@@H]4C[C@H](O)CC[C@]4(C)[C@H]3CC[C@]12C
2. C[C@H](CCC(=O)O)[C@H]1CC[C@H]2[C@@H]3[C@@H](O)C[C@@H]4C[C@H](O)CC[C@]4(C)[C@H]3CC[C@]12C
3. C[C@H](CCC(=O)O)[C@H]1CC[C@H]2[C@@H]3[C@H](O)C[C@@H]4C[C@H](O)CC[C@]4(C)[C@H]3C[C@H](O)[C@]12C
4. C[C@H](CCC(=O)NCC(=O)O)[C@H]1CC[C@H]2[C@@H]3[C@H](O)C[C@@H]4C[C@H](O)CC[C@]4(C)[C@H]3C[C@H](O)[C@]12C
5. C[C@H](CCC(=O)NCCS(=O)(=O)O)[C@H]1CC[C@H]2[C@@H]3[C@H](O)C[C@@H]4C[C@H](O)CC[C@]4(C)[C@H]3C[C@H](O)[C@]12C
6. C[C@H](CCC(=O)O)[C@H]1CC[C@H]2[C@@H]3CC[C@@H]4C[C@H](O)CC[C@]4(C)[C@H]3C[C@H](O)[C@]12C

1: 237.866; 2: 191.876; 3: 386.336; 4: 308.948; 5: 486.955; 6: 328.288
